System: UCD52 (cells of a triple-negative basal-like breast cancer xenograft)
Assay: cell viability of combination (% of vehicle); higher = less cytotoxic
Settings: 1 µM; 72 h; partner dose: 10 nM
Threshold check on cell viability of combination: strictly below 60 is 1 (yes); on or above 60 is 0 (no).

Here are 5 molecules together with their reported answers.
{"columns": ["molecule", "label_value"],
 "data": [
  ["CCCCCCCCCCCC1=C(O)C(=O)C=C(O)C1=O [Embelin] + CC(C)C[C@H](NC(=O)[C@H](CCc1ccccc1)NC(=O)CN1CCOCC1)C(=O)N[C@@H](Cc1ccccc1)C(=O)N[C@@H](CC(C)C)C(=O)[C@@]1(C)CO1", "1 (yes)"],
  ["Cn1cnc2c(F)c(Nc3ccc(Br)cc3F)c(C(=O)NOCCO)cc21 + CC(C)C[C@H](NC(=O)[C@H](CCc1ccccc1)NC(=O)CN1CCOCC1)C(=O)N[C@@H](Cc1ccccc1)C(=O)N[C@@H](CC(C)C)C(=O)[C@@]1(C)CO1", "1 (yes)"],
  ["Cc1c(-c2ccc(O)cc2)n(Cc2ccc(OCCN3CCCCCC3)cc2)c2ccc(O)cc12.Cl [Bazedoxifene HCl] + CC(C)C[C@H](NC(=O)[C@H](CCc1ccccc1)NC(=O)CN1CCOCC1)C(=O)N[C@@H](Cc1ccccc1)C(=O)N[C@@H](CC(C)C)C(=O)[C@@]1(C)CO1", "0 (no)"],
  ["CC1(COc2ccc3c(c2)ncn3-c2ccc3cccc(N4CCC(N)CC4)c3n2)COC1 + CC(C)C[C@H](NC(=O)[C@H](CCc1ccccc1)NC(=O)CN1CCOCC1)C(=O)N[C@@H](Cc1ccccc1)C(=O)N[C@@H](CC(C)C)C(=O)[C@@]1(C)CO1", "0 (no)"],
  ["CN(C)CC=CC(=O)Nc1cc2c(Nc3ccc(F)c(Cl)c3)ncnc2cc1OC1CCOC1.O=C(O)C=CC(=O)O.O=C(O)C=CC(=O)O (configuration not stated) [Afatinib dimaleate] + CC(C)C[C@H](NC(=O)[C@H](CCc1ccccc1)NC(=O)CN1CCOCC1)C(=O)N[C@@H](Cc1ccccc1)C(=O)N[C@@H](CC(C)C)C(=O)[C@@]1(C)CO1", "1 (yes)"]
]}

Exercise: Record CC(Oc1cc(-c2cnn(C3CCNCC3)c2)cnc1N)c1c(Cl)ccc(F)c1Cl [(R)-Crizotinib] + CC(C)C[C@H](NC(=O)[C@H](CCc1ccccc1)NC(=O)CN1CCOCC1)C(=O)N[C@@H](Cc1ccccc1)C(=O)N[C@@H](CC(C)C)C(=O)[C@@]1(C)CO1 : is its cell viability of combination strictly below 60?
Key: 1 (yes)

Ref: the supplement of paper PMC6992640
